# test-target: Amyloid-beta precursor protein (Homo sapiens)
# Sequence (P05067 whole entry): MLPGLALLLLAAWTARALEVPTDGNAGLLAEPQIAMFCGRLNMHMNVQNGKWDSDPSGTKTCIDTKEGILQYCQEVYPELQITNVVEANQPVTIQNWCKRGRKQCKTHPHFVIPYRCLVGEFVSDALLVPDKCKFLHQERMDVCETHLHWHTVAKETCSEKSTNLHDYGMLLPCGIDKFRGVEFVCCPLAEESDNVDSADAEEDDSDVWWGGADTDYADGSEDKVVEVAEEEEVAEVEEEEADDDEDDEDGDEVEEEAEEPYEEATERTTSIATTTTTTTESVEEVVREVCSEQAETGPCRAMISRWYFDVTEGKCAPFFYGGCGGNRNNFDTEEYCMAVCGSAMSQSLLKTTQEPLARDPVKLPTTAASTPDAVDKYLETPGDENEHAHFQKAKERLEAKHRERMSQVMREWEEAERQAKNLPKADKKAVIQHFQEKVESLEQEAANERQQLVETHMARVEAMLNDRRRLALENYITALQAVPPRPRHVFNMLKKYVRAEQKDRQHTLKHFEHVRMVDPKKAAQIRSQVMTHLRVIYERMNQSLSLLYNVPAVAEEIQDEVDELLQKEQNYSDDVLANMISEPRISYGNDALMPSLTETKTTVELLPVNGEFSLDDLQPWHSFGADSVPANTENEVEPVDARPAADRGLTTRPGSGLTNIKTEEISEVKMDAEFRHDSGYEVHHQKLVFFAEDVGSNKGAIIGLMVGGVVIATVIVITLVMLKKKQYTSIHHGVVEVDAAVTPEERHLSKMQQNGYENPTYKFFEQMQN
# assay-summary: Binding affinity to amyloid beta (1 to 42) (unknown origin) aggregates assessed as apparent dissociation constant after 30 mins by fluorescence spectroscopic analysis
# condition-summary: read-out: Kd(app)
measured-metric: Kd (nM)

Nc1ccc(/C=C/c2nc3ccc(I)cc3[nH]2)cc1
900

P: CN(C)c1ccc(/C=C/c2nc3ccc(I)cc3[nH]2)cc1
Q: CNc1ccc(/C=C/c2nc3ccc(I)cc3[nH]2)cc1
-- ask Which of the two gives a bigger number for Kd: P or Q ? Answer by stating the label of the chosen item.
-- reply P

* * *

# assay-summary: 1-Octanol-PBS buffer partition coefficient, log P of the compound at 0.37 MBq after 2 mins by gamma counting analysis
# Assay type: physicochemical
measured-metric: logP at 2 min

CN(C)c1ccc(/C=C/c2nc3ccc([125I])cc3[nH]2)cc1
2.23
CNc1ccc(/C=C/c2nc3ccc([125I])cc3[nH]2)cc1
2

a: Nc1ccc(/C=C/c2nc3ccc([125I])cc3[nH]2)cc1
b: CN(C)c1ccc(/N=N/c2nc3ccc([125I])cc3s2)cc1
-- ask Input pair: a , b . Output: entry with lower logP at 2 min. Answer by stating the label of the chosen item.
-- reply a
